Data origin: the supplement of paper PMC10567573

B1: TRIM55 (parent)
chain: ICPICLEMFTKPVVILPCQHNLCR

variants of: B1; test: protein stability index of a GFP-peptide fusion (GPS, HEK-293T) (PSI 1-6); higher = more stable; details: c terminus: a fixed tail appended;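 also: lentivirally expressed fusions sorted by FACS into six bins by GFP to DsRed ratio, PSI derived from sequencing read proportions per bin multiplied by bin number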
Here the recorded protein stability index is given for each entry.
Lab note: record the figure alone, no unit after it.

Some solved entries appear below for comparison.
chain sequence	quantity measured	assay result
ICPICLEMFTKPVVILPCQHNFCR [L22F]	protein stability index	1.99
ICPICLEMFTKPVVILPCQTNLCR [H20T]	protein stability index	1.54
ICGICLEMFTKPVVILPCQHNLCR [P3G]	protein stability index	1.26
ICPICLEMFLKPVVILPCQHNLCR [T10L]	protein stability index	2.59
ICPIDLEMFTKPVVILPCQHNLCR [C5D]	protein stability index	2.05

Request the reported protein stability index associated with ICPICLEMFTKPVVISPCQHNLCR [L16S]
2.4
